REPORTED_PROPERTY: pKd
Reminder that pKd means the negative base-10 logarithm of the concentration expressed in mol/L.

Record NC(=O)C1=CN([C@@H]2O[C@H](COP(=O)(O)OP(=O)(O)OC[C@H]3O[C@@H](n4cnc5c(N)ncnc54)[C@H](O)[C@@H]3O)[C@@H](O)[C@H]2O)C=CC1 [NADH] has DepBRleg (Rhizobium leguminosarum) pKd equal to 4.17

Record NC(=O)C1=CN([C@@H]2O[C@H](COP(=O)(O)OP(=O)(O)OC[C@H]3O[C@@H](n4cnc5c(N)ncnc54)[C@H](OP(=O)(O)O)[C@@H]3O)[C@@H](O)[C@H]2O)C=CC1 [NADPH] has DepBRleg (Rhizobium leguminosarum) pKd equal to 4.94

====

Target: DepBRleg (Rhizobium leguminosarum, UniProt J0WHR2, K217M)
Construct: N-terminal His-tag, pET28a (NdeI/HindIII), expressed in E. coli BL21 LOBSTR; about 39 kDa protomer; octamer
Test: tryptophan fluorescence quenching
REPORTED_PROPERTY: Kd (µM)
Quick reminder: number only, in µM, skip the unit.

Value of Kd reported for the compound NC(=O)C1=CN([C@@H]2O[C@H](COP(=O)(O)OP(=O)(O)OC[C@H]3O[C@@H](n4cnc5c(N)ncnc54)[C@H](OP(=O)(O)O)[C@@H]3O)[C@@H](O)[C@H]2O)C=CC1 is 74.1

====

Target: DepBRleg (Rhizobium leguminosarum, UniProt J0WHR2, K217E)
Construct: N-terminal His-tag, pET28a (NdeI/HindIII), expressed in E. coli BL21 LOBSTR; about 39 kDa protomer; octamer
Assay: tryptophan fluorescence quenching
REPORTED_PROPERTY: Kd
Please don't drop the unit; write it after the number.

Value of Kd reported for the compound NC(=O)C1=CN([C@@H]2O[C@H](COP(=O)(O)OP(=O)(O)OC[C@H]3O[C@@H](n4cnc5c(N)ncnc54)[C@H](OP(=O)(O)O)[C@@H]3O)[C@@H](O)[C@H]2O)C=CC1 is 68.6 µM

====

Molecular target: DepBRleg (Rhizobium leguminosarum, UniProt J0WHR2, R290N)
Construct: gene Rleg4DRAFT_7458; N-terminal His-tag, pET28a (NdeI/HindIII), expressed in E. coli BL21 LOBSTR; about 39 kDa protomer; octamer
Assay: tryptophan fluorescence quenching
Format: binding
REPORTED_PROPERTY: pKd
Reminder that pKd means the negative base-10 logarithm of the concentration expressed in mol/L.

Record NC(=O)C1=CN([C@@H]2O[C@H](COP(=O)(O)OP(=O)(O)OC[C@H]3O[C@@H](n4cnc5c(N)ncnc54)[C@H](OP(=O)(O)O)[C@@H]3O)[C@@H](O)[C@H]2O)C=CC1 has DepBRleg (Rhizobium leguminosarum, UniProt J0WHR2, R290N) pKd equal to 4.23
